# Tested on: Geobacillus stearothermophilus spores (ATCC 7953)
# procedure_summary: Fluorescence of enzyme substrates in culture media with Geobacillus stearothermophilus spores (96-well plate, 60° C.)
# Format: cell-based
# condition_parameters: 5 × 10^3 spores; culture media pH 6.7; substrate 0.3 mg/mL; 60° C.; 360 nm ex/450 nm em; 10 sec
measure_name: MEASURED FLUORESCENCE, RFU 10 Sec (RFU)
Respond with the bare value in RFU.

{"compound": "Cc1cc(=O)oc2cc(O[C@H]3O[C@H](CO)[C@@H](O)[C@H](O)[C@H]3O)ccc12 [MUG, reference compound]", "MEASURED FLUORESCENCE, RFU 10 Sec, RFU": 430}

Name the recorded MEASURED FLUORESCENCE, RFU 10 Sec for "Cc1cc(=O)oc2c(Cl)c(O[C@H]3O[C@H](CO)[C@@H](O)[C@H](O)[C@H]3O)ccc12" . 1164

Also Cc1cc(=O)oc2c(F)c(O[C@H]3O[C@H](CO)[C@@H](O)[C@H](O)[C@H]3O)ccc12 [Example 8F-MUG, reference compound] ? 693

Also "Cc1cc(=O)oc2cc(O[C@H]3O[C@H](CO)[C@@H](O)[C@H](O)[C@H]3O)c(Cl)cc12" ? 1013
